system: OVCAR-5 ovarian; experiment: NCI-60 one-dose screen, 48 h; conditions: 10 µM unless noted
The panel holds about 83,000 compounds, 20% with a hit somewhere; the sample as a whole holds those more often. Activity calls are given as the source filed them. The calls were made as follows: active = growth percent below 10; inactive = the rest.
Respond using exactly one of the listed classes: T for active, F for inactive

Some solved cases for reference:
{"MOLECULE": "CCCCCCCCCCCC1N=C(N)N=C(N)N1c1cccc(Br)c1 (centres undefined)", "CATEGORY LABEL": "T"}
{"MOLECULE": "CCOc1ccc(Nc2nc3c(s2)C(=O)c2ccccc2C3=O)cc1", "CATEGORY LABEL": "F"}
{"MOLECULE": "CCC(=O)c1cc([N+](=O)[O-])c(Br)s1", "CATEGORY LABEL": "F"}

Shift focus to the following entry.
Outcome logged for `Cc1nnc(N/N=C/c2ccc([N+](=O)[O-])o2)[nH]c1=O` in this assay:
T

----------
Reported growth values follow for various molecules
tested on: SK-MEL-2 melanoma; test: NCI-60 one-dose screen, 48 h (100 = growth as untreated, 0 = no growth, -100 = all killed); details: 10 µM unless noted
This is part of a sample that, as a whole, favours compounds with a hit. Of some 83,000 tested, about 20% had one in any assay.
Write it as a number; the unit % goes unstated.

{"MOLECULE": "CN(C)c1ccc(C(C#N)(c2ccccc2)c2ccc(N(C)C)cc2)cc1", "EXPERIMENTAL RESULT": 85.2}
{"MOLECULE": "O=C(c1ccccc1)C(Br)[N+](=O)[O-] (stereo unspecified)", "EXPERIMENTAL RESULT": 97.5}
{"MOLECULE": "CC(C)(C)c1ccc(O)c(Br)c1", "EXPERIMENTAL RESULT": 126}
{"MOLECULE": "N#CC(=C1SCS1)[N+](=O)[O-]", "EXPERIMENTAL RESULT": 19.2}
{"MOLECULE": "c1ccc(-c2cc3cc4ccccc4cn3c2)cc1", "EXPERIMENTAL RESULT": 90.1}
{"MOLECULE": "O=C1Nc2ccc(Br)cc2C1=O", "EXPERIMENTAL RESULT": 117}
{"MOLECULE": "O=C(CBr)c1ccc(OC(=O)c2ccccc2)cc1", "EXPERIMENTAL RESULT": 111}
{"MOLECULE": "Oc1ccc(Cl)cc1C(c1cc(Cl)ccc1O)C(Cl)(Cl)Cl", "EXPERIMENTAL RESULT": 49.2}

# query: growth | item `CCCCCCCCCCCC[n+]1ccc2ccccc2c1` | system: SK-MEL-2 melanoma
-24.7

Give the reported growth for `Oc1cc(Cl)ccc1Cc1ccc(Cl)cc1O` (system: SK-MEL-2 melanoma).
66.1

Give growth (SK-MEL-2 melanoma) of the following molecule: CCOc1ccc(C(CN2CCOCC2)C(C)=O)cc1OC (stereo unspecified)
111

----------
system: EKVX NSCLC; test: NCI-60 one-dose screen, 48 h (100 = growth as untreated, 0 = no growth, -100 = all killed); settings: 10 µM unless noted
Compounds without any hit were thinned out: in the full panel of roughly 83,000, 20% have a hit.
# reported growth; entries follow
Just the number please, in %, no unit attached.

Use these answered entries as a reference point.
{"MOLECULE": "CCN(CC)c1ccc(/C=C\\C(=O)c2ccc(NC(C)=O)cc2)cc1", "SUBJECT OF TEST": "EKVX NSCLC", "UNIT ABBREVIATION": "%", "EXPERIMENTAL RESULT": 79.1}
{"MOLECULE": "O=C(c1ccccc1)c1ccc(O)c2ncccc12", "SUBJECT OF TEST": "EKVX NSCLC", "UNIT ABBREVIATION": "%", "EXPERIMENTAL RESULT": 51.1}
{"MOLECULE": "CCOC(=O)c1c(C)[nH]c2ccc(O)cc12", "SUBJECT OF TEST": "EKVX NSCLC", "UNIT ABBREVIATION": "%", "EXPERIMENTAL RESULT": 98.3}
{"MOLECULE": "O=S(=O)(O)c1cnccn1", "SUBJECT OF TEST": "EKVX NSCLC", "UNIT ABBREVIATION": "%", "EXPERIMENTAL RESULT": 97.4}

Here is the next item to consider.
Which measured growth value corresponds to `Oc1cc(Cl)ccc1Cc1ccc(Cl)cc1O` ?
51.2

----------
system: CCRF-CEM leukemia; test: NCI-60 one-dose screen, 48 h (100 = growth as untreated, 0 = no growth, -100 = all killed); settings: 10 µM unless noted
About 83,000 compounds went through this panel and 20% of them were active in at least one assay; those are over-represented in the sample as a whole.
Binary classification by growth, with 60% as an inclusive lower bound for label 1; all other cases are label 0.

{"COMPOUND": "Nc1nc2ncc(CNc3ccc(C(=O)NC(CCC(=O)NC(CCC(=O)NC(CCC(=O)NC(CCC(=O)NC(CCC(=O)O)C(=O)O)C(=O)O)C(=O)O)C(=O)O)C(=O)O)cc3)nc2c(=O)[nH]1 (stereo not given)", "SUBJECT OF TEST": "CCRF-CEM leukemia", "CATEGORY LABEL": "label 1"}
{"COMPOUND": "O=C1c2ccccc2C(=O)c2c(O)c(Cl)cc(O)c21", "SUBJECT OF TEST": "CCRF-CEM leukemia", "CATEGORY LABEL": "label 1"}
{"COMPOUND": "O=C(O)c1ccc2c(c1)C(=O)c1ccccc1C2=O", "SUBJECT OF TEST": "CCRF-CEM leukemia", "CATEGORY LABEL": "label 1"}
{"COMPOUND": "Cc1ccc(N2C(=O)C=CC2=O)cc1", "SUBJECT OF TEST": "CCRF-CEM leukemia", "CATEGORY LABEL": "label 0"}

Evaluate `CCOC(=O)/C(=C\c1ccc2ccccc2c1)P(=O)(OCC)OCC` : growth at minimum 60%?
label 0

----------
tested on: HCT-116 colon; experiment: NCI-60 one-dose screen, 48 h; conditions: 10 µM unless noted
This is part of a sample that, as a whole, favours compounds with a hit. Of some 83,000 tested, about 20% had one in any assay. The source made the active and inactive calls. Rule for the calls: active = growth percent below 10; inactive = the rest.
Answer with one of the outcomes active, inactive

{"MOLECULE": "COC1=CC(=O)c2c(O)c3c(c(O)c2C1=O)CC(C)(O)OC3 (stereo unspecified)", "CATEGORY LABEL": "active"}
{"MOLECULE": "CCOC(=O)C1=C(C(=O)c2ccccc2)C(c2cccc([N+](=O)[O-])c2)C(C(=O)c2ccccc2)=C(C(=O)OCC)N1", "CATEGORY LABEL": "inactive"}
{"MOLECULE": "CN(C)CC(C)(CN(C)C)C(=O)/C=C/c1c(Cl)cccc1Cl", "CATEGORY LABEL": "active"}
{"MOLECULE": "CCN1CCCC(Nc2cc(C)nc(/N=C(/N)Nc3ccc(Cl)c(Cl)c3)n2)C1 (stereo unspecified)", "CATEGORY LABEL": "active"}
{"MOLECULE": "CCNc1nnnn1CC", "CATEGORY LABEL": "inactive"}

Tell me the assay call for `C[n+]1ccccc1C[n+]1ccccc1` please.
inactive

Assay outcome for `CN(C)c1ccc(C(=C2C=CC(=[N+](C)C)C=C2)c2ccc(N(C)C)cc2)cc1` : what was it?
active

----------
test system: CCRF-CEM leukemia; assay: NCI-60 one-dose screen, 48 h (100 = growth as untreated, 0 = no growth, -100 = all killed); settings: 10 µM unless noted
Compounds without any hit were thinned out: in the full panel of roughly 83,000, 20% have a hit. Active and inactive are the calls of the source. How the source made its calls: active means growth percent below 10; inactive means the rest.
Parameter: growth. Scope: all listed entries.

{"CHEMICAL STRUCTURE": "COc1ccc2nc3cc(Cl)ccc3c(NCCCCCN3CCCCC3)c2c1", "EXPERIMENTAL RESULT": "-27.6% (active)"}

Would you kindly share the measured growth for `CN1CSC(=S)N(Cc2ccccc2)C1` ?
59.3% (inactive)

Look at this compound and give its reported growth. `CCOC(=O)C1=NN(c2ccccc2)C(=O)/C1=C\N1C(=O)/C(=C/c2cccc(O)c2)SC1=S`
93% (inactive)

----------
test system: MALME-3M melanoma; test: NCI-60 one-dose screen, 48 h (100 = growth as untreated, 0 = no growth, -100 = all killed); conditions: 10 µM unless noted
This is part of a sample that, as a whole, favours compounds with a hit. Of some 83,000 tested, about 20% had one in any assay.
MEASURE NAME: growth (%)
Respond with the bare value in %.

Sample records with growth:
{"COMPOUND": "Cn1ccc(=Nc2ccc(NC(=O)c3ccc(N=c4ccn(C)c5ccc([N+](=O)[O-])cc45)cc3)cc2)cc1", "UNIT ABBREVIATION": "%", "growth": 61.9}
{"COMPOUND": "O=[N+]([O-])/C(=C/c1ccccc1)c1ccccc1", "UNIT ABBREVIATION": "%", "growth": 98.7}
{"COMPOUND": "CCC(C)C(N)C(=O)NC(CC(N)=O)C(=O)NC(CC(C)C)C(=O)NC(CCCCN)C(=O)NC(C)C(=O)NC(CC(C)C)C(=O)NC(C)C(=O)NC(C)C(=O)NC(CC(C)C)C(=O)NC(C)C(=O)NC(CCCCN)C(=O)NC(CCCCN)C(=O)NC(C(=O)NC(CC(C)C)C(N)=O)C(C)CC (stereo not given)", "UNIT ABBREVIATION": "%", "growth": 52.1}
{"COMPOUND": "CCCCCCCCCCCC(=O)OC(C)C(=O)NCCCC (stereo not given)", "UNIT ABBREVIATION": "%", "growth": 96.4}

Param readout = growth; param system = MALME-3M melanoma; param query = `CCc1cnc2ccccc2c1/C=C/c1ccc(N(C)C)cc1` ; response: value
50.7
